- Test Protocol: DDI study: pharmacokinetics of fedratinib in rats with or without antifungal drugs
- Assay type: in vivo, Sprague-Dawley (SD) rats
- Measurement Conditions: male, Sprague-Dawley, rat, plasma, po, 40 mg/kg, 40 mg/kg fedratinib oral gavage, Group D: 20 mg/kg fluconazole 30 min before, n = 6, Mean ± SD
- Source text: The UPLC-MS/MS procedures were developed and validated to detect fedratinib concentration in plasma to support an investigational study in healthy male Sprague-Dawley (SD) rats (weighing 200 ± 20 g), which were purchased from Laboratory Animal Center of Wenzhou Medical University (Wenzhou, China). The protocols and procedures of the animal experiment were checked in accordance with the regulations defined by Wenzhou Medical University Animal Care and Use Committee (wydw 2018-0002). […]
Metric: AUC(0-inf) (ng·h/mL)
All answers are understood in ng·h/mL, so give the number only.

### Prompt Recorded AUC(0-inf) of Cc1cnc(Nc2ccc(OCCN3CCCC3)cc2)nc1Nc1cccc(S(=O)(=O)NC(C)(C)C)c1 [Fedratinib] , please.
### Response 3890
